# System: T1, HLA-A*24:02 molecule
# T1 construct: MHC class I molecule on C1R-A24 cells, endogenous peptide and b2m stripped at pH 3.3, purified b2m added back; also called product of an HLA-A*24:02 gene; allele A*24:02
# Method summary: flow cytometry, C1R-A24 cells;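 further: Read-out was the amount of peptide–MHC complex on each cell, taken as the fluorescence intensity of a bound fluorescent antibody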
Attribute measured: log10 Kd (M)

Binder	log10 Kd (M)
GSPDEFSND (synthetic 9-mer derived from Casp-8) [peptide of SEQ ID NO: 72]	> -3

Ask | Given the binder LPPARHSTI (synthetic 9-mer derived from c-Myb) [peptide of SEQ ID NO: 76] , what is its reported log10 Kd (M)?
Reply | > -3

Ask | Given the binder GYITLGKPH (synthetic 9-mer derived from Helios) [peptide of SEQ ID NO: 80] , what is its reported log10 Kd (M)?
Reply | > -3

Origin of the recorded values: patent US20250236642A1
